Assay: Half-life determined upon exposure to rat liver microsomes
Format: ADME, Microsome
measurement kind: half-life (min)

[a] Br.Cc1ccc(N2CCN(C[C@@H]3C[C@H]3c3ccccc3)CC2)c(C)c1
[b] Br.Clc1ccc(N2CCN(C[C@H]3C[C@@H]3c3ccccc3)CC2)c(Cl)c1
I need your help: which of the pair a , b has higher half-life? Return value: the label identifying the chosen record.
a
(a: 3 min, b: 2 min)

----------
Test: Half-life determined upon exposure to human liver microsomes
Assay type: ADME, Microsome
measurement kind: half-life (min)

{"smiles": "Br.Clc1ccc(N2CCN(C[C@H]3C[C@@H]3c3ccccc3)CC2)c(Cl)c1", "unit tag": "min", "half-life": 19}
{"smiles": "Br.Cc1ccc(N2CCN(C[C@@H]3C[C@H]3c3ccccc3)CC2)c(C)c1", "unit tag": "min", "half-life": 16}

----------
Target: Adrenergic receptor alpha-1 (Rattus norvegicus, UniProt P15823+P23944+P43140)
Sequence (P15823 whole entry): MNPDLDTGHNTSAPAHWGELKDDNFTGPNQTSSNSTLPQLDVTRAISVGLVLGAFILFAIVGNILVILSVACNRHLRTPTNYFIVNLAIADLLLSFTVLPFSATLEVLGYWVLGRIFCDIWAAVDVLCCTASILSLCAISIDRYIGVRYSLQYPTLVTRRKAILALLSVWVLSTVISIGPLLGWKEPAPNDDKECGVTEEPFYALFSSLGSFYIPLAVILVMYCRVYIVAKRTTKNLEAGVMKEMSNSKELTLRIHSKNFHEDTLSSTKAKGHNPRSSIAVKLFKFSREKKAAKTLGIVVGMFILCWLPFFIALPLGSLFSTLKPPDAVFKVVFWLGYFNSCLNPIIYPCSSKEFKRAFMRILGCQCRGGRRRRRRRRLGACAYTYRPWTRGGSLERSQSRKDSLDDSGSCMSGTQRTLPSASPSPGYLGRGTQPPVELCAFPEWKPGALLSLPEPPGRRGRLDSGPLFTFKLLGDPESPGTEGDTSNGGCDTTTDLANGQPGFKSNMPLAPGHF
Sequence (P23944 whole entry): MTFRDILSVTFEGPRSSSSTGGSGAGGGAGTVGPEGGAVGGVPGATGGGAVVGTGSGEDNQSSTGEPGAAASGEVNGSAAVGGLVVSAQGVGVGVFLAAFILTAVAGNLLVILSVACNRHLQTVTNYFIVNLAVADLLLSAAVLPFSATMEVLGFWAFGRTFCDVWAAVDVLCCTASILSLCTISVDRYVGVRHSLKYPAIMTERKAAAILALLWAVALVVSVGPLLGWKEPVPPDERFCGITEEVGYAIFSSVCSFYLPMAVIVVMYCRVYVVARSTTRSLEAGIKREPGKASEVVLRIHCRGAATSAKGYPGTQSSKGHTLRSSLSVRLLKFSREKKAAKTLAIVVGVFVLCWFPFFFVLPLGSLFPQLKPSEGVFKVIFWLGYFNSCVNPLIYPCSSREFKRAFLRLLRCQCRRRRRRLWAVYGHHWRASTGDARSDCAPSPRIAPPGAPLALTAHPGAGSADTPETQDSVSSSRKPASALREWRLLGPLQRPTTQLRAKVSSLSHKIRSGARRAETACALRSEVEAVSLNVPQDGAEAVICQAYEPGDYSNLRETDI
Sequence (P43140 whole entry): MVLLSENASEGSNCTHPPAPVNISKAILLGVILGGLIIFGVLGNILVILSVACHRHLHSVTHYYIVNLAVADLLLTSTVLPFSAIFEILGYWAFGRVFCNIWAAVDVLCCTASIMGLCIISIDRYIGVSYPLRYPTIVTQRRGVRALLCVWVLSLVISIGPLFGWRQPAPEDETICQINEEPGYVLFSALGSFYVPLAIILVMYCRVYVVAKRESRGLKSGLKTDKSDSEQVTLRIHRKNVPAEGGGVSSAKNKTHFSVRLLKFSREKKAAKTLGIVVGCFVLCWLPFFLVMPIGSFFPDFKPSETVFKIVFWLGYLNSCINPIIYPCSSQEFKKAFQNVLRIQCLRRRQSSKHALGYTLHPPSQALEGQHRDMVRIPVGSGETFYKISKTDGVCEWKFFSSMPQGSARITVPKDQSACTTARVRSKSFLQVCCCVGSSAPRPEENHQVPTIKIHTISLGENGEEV
measurement kind: IC50 (nM)

[I] Br.Clc1cc(Cl)cc(N2CCN(C[C@H]3C[C@@H]3c3ccccc3)CC2)c1 (racemic)
[II] Clc1ccc(N2CCN(C[C@@H]3C[C@H]3c3ccccc3)CC2)c(Cl)c1
I need your help: which of the pair I , II has higher IC50? Return value: the label identifying the chosen record.
I
(I: 1341 nM, II: 348 nM)
